Molecular target: MMP-3 (Homo sapiens)
Construct: Truncated Prostromelysin-257 was expressed in a soluble form in E.coli; made in house; host or cells: E. coli
Sequence (P08254 100-274 limits assumed): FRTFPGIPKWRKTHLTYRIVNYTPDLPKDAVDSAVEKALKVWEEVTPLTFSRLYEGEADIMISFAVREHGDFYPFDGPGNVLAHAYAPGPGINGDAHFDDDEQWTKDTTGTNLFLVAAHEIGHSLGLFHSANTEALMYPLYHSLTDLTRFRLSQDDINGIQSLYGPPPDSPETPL
Test: Primary Thiopeptilide MMP-3 Inhibition Assay
Assay type: biochemical
Settings: at 5 μM; read-out: MMP-3 Thiopep. % inhibition
Listing of entries alongside the reported inhibition at 5 µM.
Give just the number in %; leave the unit off.

Solved cases below.
> print(dat)
                                   molecule  target.or.test.system  data.value
1  O=C(O)CCC(O)c1ccc(-c2ccccc2F)cc1 (centres unmarked) [Example 39, reference compound]   MMP-3 (Homo sapiens)          16
2  Cc1nc(-c2ccc(C(=O)CC(CC(C)C)C(=O)O)cc2)co1 (centres unmarked)   MMP-3 (Homo sapiens)          12
3  O=C(O)C1C2C=CC(CC2)C1C(=O)c1ccc(-c2ccc(Cl)cc2)cc1 (centres unmarked)   MMP-3 (Homo sapiens)           9
4  CC1=C(C)C[C@@H](C(=O)c2ccc(-c3ccc(Cl)cc3)cc2)[C@H](C(=O)O)C1 (relative stereo)   MMP-3 (Homo sapiens)          55
5  O=C(CC(CCCc1ccccc1)C(=O)O)c1ccc(-c2ccc(OCCCc3ccccc3)cc2)cc1 (centres unmarked)   MMP-3 (Homo sapiens)          36

Report measured inhibition at 5 µM; entry is CC(C)CC(CC(=O)c1ccc(Cl)cc1)C(=O)O (centres unmarked) [Example 27, reference compound]
11

Report measured inhibition at 5 µM; entry is O=C(CC(CCCc1ccccc1)C(=O)O)c1ccc(-c2ccc(Cl)cc2)o1 (centres unmarked)
4

Report measured inhibition at 5 µM; entry is CC(CC(=O)O)CC(=O)c1ccc(-c2ccc(Cl)cc2)cc1 (centres unmarked) [Example 332, reference compound]
37

###

Molecular target: MMP-3 (Homo sapiens)
Construct: Truncated Prostromelysin-257 was expressed in a soluble form in E.coli; made in house; host or cells: E. coli
Assay: Primary Thiopeptilide MMP-3 Inhibition Assay
Format: biochemical
Conditions: at 5 μM; read-out: MMP-3 Thiopep. % inhibition
reported_property: inhibition at 5 µM (%)
Give just the number in %; leave the unit off.

Solved cases below.
> print(dat)
                                   molecule  target.or.test.system   reported.property  unit.text  data.value
1  CC(C)CC(CCC(=O)c1ccc(-c2ccc(Cl)cc2)cc1)C(=O)O (centres unmarked)   MMP-3 (Homo sapiens)  inhibition at 5 µM          %          24
2  O=C(CC(CCCc1ccccc1)c1nnn[nH]1)c1ccc(-c2ccc(Br)cc2)cc1 (centres unmarked)   MMP-3 (Homo sapiens)  inhibition at 5 µM          %          11
3  Cc1nc(-c2ccc(C(=O)CC(CC(C)C)C(=O)O)cc2)cs1 (centres unmarked)   MMP-3 (Homo sapiens)  inhibition at 5 µM          %          31
4  CC(C)CC1CC(c2ccc(-c3ccc(Cl)cc3)cc2)OC1=O (centres unmarked) [Example 35, reference compound]   MMP-3 (Homo sapiens)  inhibition at 5 µM          %           0
5  C=C(CC(=O)c1ccc(-c2ccccc2Cl)cc1)C(=O)O [Example 24, reference compound]   MMP-3 (Homo sapiens)  inhibition at 5 µM          %          40

# evaluate next
Report measured inhibition at 5 µM; entry is O=C(O)CCC(=O)c1ccc(-c2ccccc2Cl)cc1 [Example 10, reference compound]
1
